Biological target: recombinant human JAK1 kinase domain protein (Residues 854-1154) (Homo sapiens)
Construct: human JAK1 kinase domain protein (Residues 854-1154)
Sequence (P23458 854-1154): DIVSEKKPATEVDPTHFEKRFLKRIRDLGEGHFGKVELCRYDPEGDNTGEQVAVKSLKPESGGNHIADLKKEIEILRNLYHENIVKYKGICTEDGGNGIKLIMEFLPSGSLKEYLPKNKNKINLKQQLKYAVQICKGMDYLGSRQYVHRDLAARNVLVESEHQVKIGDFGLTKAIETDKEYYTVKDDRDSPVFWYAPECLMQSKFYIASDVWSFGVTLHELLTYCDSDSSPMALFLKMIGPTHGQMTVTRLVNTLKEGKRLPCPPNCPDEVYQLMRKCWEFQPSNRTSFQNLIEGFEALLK
Test: JAK1 biochemical assay (LabChip mobility shift, Ki)
Conditions: read-out: Biochem JAK1 Ki
measured.quantity: Ki (nM)

Cn1cc(NC(=O)c2cnn3cccnc23)c(-c2cc(Oc3cc(C4CC4)cc(C4(O)CNC4)c3)ccc2OC(F)F)n1 [Example 109]; 0.88
CN1CC(O)C(n2cc(Oc3ccc(OC(F)F)c(-c4nn(C)cc4NC(=O)c4cnn5cccnc45)c3)cn2)C1 (stereo not drawn) [Example 179]; 0.82
Cn1cc(NC(=O)c2cnn3cccnc23)c(-c2cc(Oc3cnn(S(C)(=O)=O)c3)ccc2OC(F)F)n1 [Example 195]; 0.38
Cn1cc(NC(=O)c2cnn3cccnc23)c(-c2cc(Oc3cccc(C4CNC4)c3)ccc2OC(F)F)n1 [Example 87]; 0.26

I: CN1CC(CC#N)(c2ccc(Oc3ccc(OC(F)F)c(-c4nn(C)cc4NC(=O)c4cnn5cccnc45)c3)cc2)C1 [Example 145]
II: Cn1cc(NC(=O)c2cnn3cccnc23)c(-c2cc(Oc3ccc(CN4CCC[C@H](CO)C4)cc3)ccc2OC(F)F)n1 (racemic) [Example 162]
# return whichever of I and II has the smaller Ki Respond with the label that goes with your answer.
II

---

Target: Recombinant human JAK2 kinase domain protein (Residues 812-1132) (Homo sapiens)
Sequence (O60674 812-1132): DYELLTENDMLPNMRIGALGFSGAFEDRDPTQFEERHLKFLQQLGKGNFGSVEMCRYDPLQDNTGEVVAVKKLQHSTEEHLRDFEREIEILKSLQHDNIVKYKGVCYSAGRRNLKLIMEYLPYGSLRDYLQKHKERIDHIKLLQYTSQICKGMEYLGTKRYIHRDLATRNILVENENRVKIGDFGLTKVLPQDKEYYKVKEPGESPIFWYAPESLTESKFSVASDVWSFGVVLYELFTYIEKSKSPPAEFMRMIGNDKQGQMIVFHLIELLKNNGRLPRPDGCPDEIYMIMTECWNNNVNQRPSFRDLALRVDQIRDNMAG
Assay: JAK2 biochemical assay (LabChip mobility shift, Ki)
Conditions: Biochem JAK2 Ki
pKi: −log10 of the molar value.
measured.quantity: pKi

Some entries whose results are on file:
CN1CCN(C(=O)c2cccc(Oc3ccc(OC(F)F)c(-c4nn(C)cc4NC(=O)c4cnn5cccnc45)c3)c2)CC1; 9.33
CN(CCN1CCOCC1)C(=O)c1cccc(Oc2ccc(OC(F)F)c(-c3nn(C)cc3NC(=O)c3cnn4cccnc34)c2)c1; 9.17
NCc1cccc(Oc2ccc(OC(F)F)c(-c3n[nH]cc3NC(=O)c3cnn4cccnc34)c2)c1F; 9.25
Cc1ccc(Oc2ccc(OC(F)F)c(-c3nn(CCN[C@H]4CCCOC4)cc3NC(=O)c3cnn4cccnc34)c2)cc1C(=O)N(C)C (racemic); 9.00
Cn1cc(NC(=O)c2cnn3cccnc23)c(-c2cc(Oc3cnn(C(F)F)c3)ccc2OC(F)F)n1; 9.62

A: Cn1cc(NC(=O)c2cnn3cccnc23)c(-c2cc(Oc3cnn(CCBr)c3)ccc2OC(F)F)n1
B: Cn1cc(NC(=O)c2cnn3cccnc23)c(-c2cc(Oc3ccc(CN4CC[C@@H](CO)C4)cc3)ccc2OC(F)F)n1 (racemic)
C: O=C(Nc1cn(C2COC2)nc1-c1cc(Oc2ccccc2)ccc1OC(F)F)c1cnn2cccnc12
D: N#CCc1ccc(Oc2ccc(OC(F)F)c(-c3n[nH]cc3NC(=O)c3cnn4cccnc34)c2)cc1
Hello, I need these entries ordered by pKi, highest reading first. Thanks! Submit the labels in the order that the ranking request calls for.
D, C, A, B

1: Cn1cc(NC(=O)c2cnn3cccnc23)c(-c2cc(Oc3cccnn3)ccc2OC(F)F)n1
2: Cn1cc(NC(=O)c2cnn3cccnc23)c(-c2cc(Oc3cccc(C4CNCCO4)c3)ccc2OC(F)F)n1 (centres unmarked) [Example 82]
3: O=C(Nc1c[nH]nc1-c1cc(Oc2cccc(C3CNCCO3)c2)ccc1OC(F)F)c1cnn2cccnc12 (centres unmarked)
4: CC(O)Cn1cc(Oc2ccc(OC(F)F)c(-c3nn(C)cc3NC(=O)c3cnn4cccnc34)c2)cn1 (racemic)
Sort entries by pKi from minimum to maximum value. Submit the labels in the order that the ranking request calls for.
1, 2, 3, 4
(1: 8.85, 2: 9.22, 3: 9.44, 4: 9.74)
